test-system: IKKβ (Homo sapiens, UniProt O14920)
Construct: purchased Upstate Biotechnology Inc. 14-485
Sequence (O14920 1-756): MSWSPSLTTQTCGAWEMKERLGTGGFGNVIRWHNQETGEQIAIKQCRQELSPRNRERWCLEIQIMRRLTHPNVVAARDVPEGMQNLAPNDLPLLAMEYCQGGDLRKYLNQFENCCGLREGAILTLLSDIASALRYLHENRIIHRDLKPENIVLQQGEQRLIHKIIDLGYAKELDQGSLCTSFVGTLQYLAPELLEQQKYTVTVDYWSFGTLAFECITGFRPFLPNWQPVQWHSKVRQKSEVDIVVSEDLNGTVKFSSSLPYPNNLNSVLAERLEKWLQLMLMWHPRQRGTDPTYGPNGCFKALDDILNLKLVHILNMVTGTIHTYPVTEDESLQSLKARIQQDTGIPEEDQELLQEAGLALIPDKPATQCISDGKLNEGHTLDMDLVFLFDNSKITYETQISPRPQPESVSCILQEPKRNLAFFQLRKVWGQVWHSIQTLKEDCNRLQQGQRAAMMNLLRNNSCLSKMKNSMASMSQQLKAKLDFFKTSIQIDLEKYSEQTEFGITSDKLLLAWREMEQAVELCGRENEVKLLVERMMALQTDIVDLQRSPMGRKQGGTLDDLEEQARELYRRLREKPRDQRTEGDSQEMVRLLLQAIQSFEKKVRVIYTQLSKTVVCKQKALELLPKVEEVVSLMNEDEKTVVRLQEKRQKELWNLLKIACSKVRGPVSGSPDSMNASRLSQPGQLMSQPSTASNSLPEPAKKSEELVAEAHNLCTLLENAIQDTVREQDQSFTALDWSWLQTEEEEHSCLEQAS
procedure-summary: IKKβ inhibition assay by fluorescence polarization (IMAP kit)
Assay type: biochemical
conditions: test compound at 1 μM; inhibition rate exceeding 100% is indicated as 100%
outcome-measure: inhibition at 1 µM (%)

C=Cc1cc(F)c2c(C(N)=O)c(NC(N)=O)[nH]c2c1OC [Compound No. 8-2] :: 91
COc1cccc2c(C(N)=O)c(NC(N)=O)[nH]c12 [Compound No. 1-3] :: 78

A: COc1ccc2c(C(N)=O)c(NC(N)=O)[nH]c2c1 [Compound No. 1-1]
B: COc1ccc(F)c2c(C(N)=O)c(NC(N)=O)[nH]c12 [Compound No. 1-4]
Exam item: Given the listed items, does A or B have the lesser reported inhibition at 1 µM? Returns: label corresponding to the selected item.
Marked response: B
